Listing of entries alongside the reported PBM E-score.
tgt: Pdr3 (UniProt P33200)
Sequence: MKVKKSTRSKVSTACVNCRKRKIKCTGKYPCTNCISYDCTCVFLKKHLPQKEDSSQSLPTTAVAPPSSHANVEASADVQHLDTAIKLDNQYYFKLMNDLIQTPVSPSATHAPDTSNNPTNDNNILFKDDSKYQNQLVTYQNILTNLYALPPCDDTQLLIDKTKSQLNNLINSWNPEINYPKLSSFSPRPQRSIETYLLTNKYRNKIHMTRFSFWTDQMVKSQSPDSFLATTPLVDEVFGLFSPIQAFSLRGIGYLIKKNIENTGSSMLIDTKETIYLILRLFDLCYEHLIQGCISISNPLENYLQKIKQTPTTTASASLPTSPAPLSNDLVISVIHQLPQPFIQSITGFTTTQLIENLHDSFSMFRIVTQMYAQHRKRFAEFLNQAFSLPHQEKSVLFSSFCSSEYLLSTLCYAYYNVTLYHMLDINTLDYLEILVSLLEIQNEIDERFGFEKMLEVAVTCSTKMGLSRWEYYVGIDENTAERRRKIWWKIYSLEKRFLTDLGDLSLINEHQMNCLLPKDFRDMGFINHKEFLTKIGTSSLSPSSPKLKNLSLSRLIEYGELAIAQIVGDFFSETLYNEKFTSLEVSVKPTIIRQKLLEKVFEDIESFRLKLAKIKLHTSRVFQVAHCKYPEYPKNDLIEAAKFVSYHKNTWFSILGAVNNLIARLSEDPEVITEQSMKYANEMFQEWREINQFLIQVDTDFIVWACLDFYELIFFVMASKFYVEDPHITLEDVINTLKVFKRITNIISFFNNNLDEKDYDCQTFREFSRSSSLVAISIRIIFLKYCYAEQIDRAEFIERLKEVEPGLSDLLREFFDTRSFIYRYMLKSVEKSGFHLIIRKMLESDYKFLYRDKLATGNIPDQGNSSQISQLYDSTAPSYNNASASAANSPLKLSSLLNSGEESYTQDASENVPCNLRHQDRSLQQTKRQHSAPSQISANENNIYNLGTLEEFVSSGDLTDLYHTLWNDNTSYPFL
experimental details: PBM E-score (8-mer binding enrichment) (E-score (-0.5 to 0.5)); higher = stronger / more preferred TF binding
condition summary: protein concentration: 200 nM; construct: GST-full length
Whole data set: some 33,000 sequences, median “E-score (-0.5 to 0.5)” near -0.035, cut for the highest 2% near 0.35. The entries come from a sample that favours the highest values as a whole.

query sequence | PBM E-score
ATTCCACA | 0.204
GACCGGAC | 0.28
CTCTTCAG | -0.243
GTTCCTCA | 0.0277
GTTCCCCA | -0.173
CTTCCGCC | 0.336
ATTCCGCG | 0.479
ACCTGACT | -0.131
GACCGGCA | 0.0622
CACCGGGA | 0.272
CACCGGAC | 0.341
AACCGGAG | 0.326
TACCGGCA | 0.214
ACTGTGAG | -0.0549
CACCGGAA | 0.46
ATTCCGCC | 0.417
AACCGGAA | 0.435
TACCGGTA | 0.103
AGCCTTAG | -0.37
ACTCCGCA | 0.154
ATTCCGCA | 0.379
GTTCCGCA | 0.462

###

tgt: Pdr3 (UniProt P33200)
Sequence: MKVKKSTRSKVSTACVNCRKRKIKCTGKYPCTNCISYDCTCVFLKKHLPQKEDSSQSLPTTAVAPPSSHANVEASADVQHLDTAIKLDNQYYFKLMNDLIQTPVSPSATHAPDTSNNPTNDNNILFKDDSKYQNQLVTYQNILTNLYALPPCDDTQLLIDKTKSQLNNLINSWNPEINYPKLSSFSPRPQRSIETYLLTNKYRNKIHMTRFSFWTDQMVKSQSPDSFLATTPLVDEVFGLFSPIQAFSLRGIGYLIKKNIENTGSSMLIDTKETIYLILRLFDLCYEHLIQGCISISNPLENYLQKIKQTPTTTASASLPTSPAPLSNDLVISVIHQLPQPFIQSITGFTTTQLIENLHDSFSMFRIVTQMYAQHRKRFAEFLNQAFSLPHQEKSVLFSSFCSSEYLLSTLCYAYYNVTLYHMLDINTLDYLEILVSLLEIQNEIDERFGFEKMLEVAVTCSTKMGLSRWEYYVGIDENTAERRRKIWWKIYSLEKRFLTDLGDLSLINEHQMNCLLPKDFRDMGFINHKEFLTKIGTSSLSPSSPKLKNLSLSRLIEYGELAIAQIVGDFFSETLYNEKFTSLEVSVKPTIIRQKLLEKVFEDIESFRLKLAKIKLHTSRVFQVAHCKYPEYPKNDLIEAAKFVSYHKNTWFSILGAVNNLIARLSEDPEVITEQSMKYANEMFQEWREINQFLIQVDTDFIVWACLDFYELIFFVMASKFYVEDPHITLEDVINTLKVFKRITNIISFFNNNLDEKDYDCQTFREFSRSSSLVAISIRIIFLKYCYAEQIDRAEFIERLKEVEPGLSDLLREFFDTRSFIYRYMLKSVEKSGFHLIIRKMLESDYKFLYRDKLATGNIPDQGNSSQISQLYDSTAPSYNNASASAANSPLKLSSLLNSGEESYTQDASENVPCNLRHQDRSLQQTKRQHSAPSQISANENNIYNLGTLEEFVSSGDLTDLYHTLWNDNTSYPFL
experimental details: PBM E-score (8-mer binding enrichment) (E-score (-0.5 to 0.5)); higher = stronger / more preferred TF binding
condition summary: protein concentration: 200 nM; construct: GST-full length
Whole data set: some 33,000 sequences, median “E-score (-0.5 to 0.5)” near -0.035, cut for the highest 2% near 0.35. This excerpt belongs to a sample that is enriched for the highest values.
attribute measured: PBM E-score

query sequence | result value
ATACGGAA | 0.439
GATCGGGC | 0.142
ATCCCAGG | 0.113
CCGATTCG | 0.25
CGCGAGGA | 0.135
AATCGGAA | 0.445
GGGCGGAA | 0.414
ATGTGGTA | -0.0392
GTCCCCGA | 0.166
GATCGGAC | 0.362
CTACGGAG | 0.246
ATGCGAAG | -0.0662
CCCCTTTC | 0.00738
CTCCACGC | -0.165
TATCGGCA | 0.101
GCGATTCC | 0.34
TTACGGAA | 0.419
CAGCATGG | -0.00655
ATCCCGGG | 0.455
AGCGGACA | 0.154
CCGATTCC | 0.395
AGCGGACC | 0.175
AATCGGAG | 0.276
ATACGGAC | 0.239
CGTACCAC | -0.102
CTACCGGA | 0.335
GGGCGGGA | 0.35
CATCGGAA | 0.422
CATCGGAG | 0.0478
TATCTTAA | -0.0962
GTACGGAA | 0.402
TATCGGGA | 0.228
GGCGGACC | 0.357
AAAGTCTC | -0.186
AGAGCAAC | -0.197
ATCCCTGG | -0.0752
GTACGGAC | 0.278
GCGCCCCC | -0.146
CGCGGACC | 0.437
ACGTGAGT | -0.0439
CTTGGGCC | -0.0633
CATGAAAC | 0.0519
ATCCCGAC | 0.331
ACGCCGAT | -0.0606
CGGGGACC | 0.291
TATCGGAA | 0.419

###

tgt: Pdr3 (UniProt P33200)
Sequence: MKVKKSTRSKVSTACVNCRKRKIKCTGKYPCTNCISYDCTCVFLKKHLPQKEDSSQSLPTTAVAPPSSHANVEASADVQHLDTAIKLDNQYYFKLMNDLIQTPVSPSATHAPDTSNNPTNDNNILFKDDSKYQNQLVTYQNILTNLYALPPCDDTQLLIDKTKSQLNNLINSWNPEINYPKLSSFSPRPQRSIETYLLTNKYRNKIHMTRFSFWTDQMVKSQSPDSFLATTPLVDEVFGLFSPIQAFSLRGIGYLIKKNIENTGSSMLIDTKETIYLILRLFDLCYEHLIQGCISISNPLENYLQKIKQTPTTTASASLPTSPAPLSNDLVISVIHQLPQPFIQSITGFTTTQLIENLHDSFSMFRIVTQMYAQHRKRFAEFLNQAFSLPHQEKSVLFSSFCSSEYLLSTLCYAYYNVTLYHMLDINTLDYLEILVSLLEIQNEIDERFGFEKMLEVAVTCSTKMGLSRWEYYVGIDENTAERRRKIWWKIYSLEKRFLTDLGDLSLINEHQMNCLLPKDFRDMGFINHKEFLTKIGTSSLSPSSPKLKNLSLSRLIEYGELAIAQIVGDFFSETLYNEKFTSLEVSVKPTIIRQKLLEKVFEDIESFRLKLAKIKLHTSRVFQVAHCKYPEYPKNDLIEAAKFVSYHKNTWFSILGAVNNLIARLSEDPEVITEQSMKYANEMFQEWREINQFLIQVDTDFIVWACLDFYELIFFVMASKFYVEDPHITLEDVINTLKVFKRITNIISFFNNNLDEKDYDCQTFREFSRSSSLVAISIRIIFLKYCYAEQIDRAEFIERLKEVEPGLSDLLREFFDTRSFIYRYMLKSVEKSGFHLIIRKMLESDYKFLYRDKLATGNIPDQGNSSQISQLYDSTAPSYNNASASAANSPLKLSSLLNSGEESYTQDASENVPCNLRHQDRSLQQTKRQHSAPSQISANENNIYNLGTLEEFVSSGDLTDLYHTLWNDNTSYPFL
experimental details: PBM E-score (8-mer binding enrichment) (E-score (-0.5 to 0.5)); higher = stronger / more preferred TF binding
condition summary: protein concentration: 200 nM; construct: GST-full length
Over roughly 33,000 sequences, “E-score (-0.5 to 0.5)” has its median near -0.035; the highest 2% begin near 0.35. This excerpt belongs to a sample that is enriched for the highest values.
Listing of entries alongside the reported PBM E-score.

query sequence | PBM E-score
AGGCGAAC | -0.114
TCCATGGA | 0.423
GCACGGCA | 0.103
GCACGGGA | 0.315
ACCACGGG | 0.205
GACTAACC | -0.2
ACCACGGA | 0.377
AGGCAGGA | -0.149
GACGCTAA | -0.213
CAGTCCCG | 0.273
GGGGTCAA | -0.0321
ACCACGGC | 0.135
CGGGTCAA | 0.387
CACAGAAA | 0.0151
TCCACGGA | 0.477
ACACGGAC | 0.299
ACCATGGA | -0.151
CCCATGGA | -0.0126
CTAGAACA | 0.0618
ACTGACCG | -0.00211
TATCGAGA | -0.0727
GCCACGGC | 0.0607
